Here the recorded viability, T/C is given for each entry.
- Test system: 935938-334-R-J1-PDC complex spheroid viability
- experimental protocol: Anticancer human tumor 935938-334-R-J1-PDC patient-derived small intestine adenocarcinoma cell line growth inhibition [POLQ]
- condition label: second compound 0.1 µM; first compound 10 µM; stronger effect = lower value
Express the result in % but write the number alone.

Some solved cases for reference:
CC1COCCN1c1cc(C2(O)CC3CCC(C2)O3)c2cnn(-c3ccn[nH]3)c2n1 (stereo not given) + COC1C(OC(N)=O)C(O)C(Oc2ccc3c(O)c(NC(=O)c4ccc(O)c(CC=C(C)C)c4)c(=O)oc3c2C)OC1(C)C = 9.26
COc1ccc([C@@H](O)c2cc(-c3ncnc4cc(N5CCOCC5)ccc34)c(F)cc2Cl)nn1 + Cc1cccc(N(C)C(=O)C2C(O)CCN2c2nc(C)cc(C(F)(F)F)c2C#N)c1 = 34.5
CC1COCCN1c1cc(-c2ccnn2C)c2ccnc(-c3ccn[nH]3)c2n1 (stereo not given) + COC1C(OC(N)=O)C(O)C(Oc2ccc3c(O)c(NC(=O)c4ccc(O)c(CC=C(C)C)c4)c(=O)oc3c2C)OC1(C)C = 19.7

Which value of viability, T/C has been reported for CNCc1ccc(-c2[nH]c3cc(F)cc4c3c2CCNC4=O)cc1 + COC1C(OC(N)=O)C(O)C(Oc2ccc3c(O)c(NC(=O)c4ccc(O)c(CC=C(C)C)c4)c(=O)oc3c2C)OC1(C)C in the records?
96.7

What about CC1COCCN1c1cc(C2(S(C)(=N)=O)CC2)nc(-c2ccnc3[nH]ccc23)n1 (stereo not given) + Cc1cccc(N(C)C(=O)C2C(O)CCN2c2nc(C)cc(C(F)(F)F)c2C#N)c1 ?
20.2

* * *

- System: 935938-334-R-J1-PDC complex spheroid viability
- experimental protocol: Anticancer human tumor 935938-334-R-J1-PDC cell line growth inhibition [POLQ];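 note: spheroids exposed to drugs for seven days before viability read; 100% = DMSO vehicle control wells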
- condition label: second compound 1 µM; first compound 3.16 µM; stronger effect = lower value
- Experimental: Multicellular complex tumor spheroid response to Polymerase (POL) inhibitors (novobiocin, ART-558, RP6685) in combination with a variety of drugs and investigational agents in selected tumor cell lines The POL inhibitors (novobiocin, ART-558, and RP6685) were evaluated both individually and in combination with standard of care and investigational anticancer small molecules within a complex spheroid model of solid tumors. . […]
parameter: viability, T/C (%)
Express the result in % but write the number alone.

COc1cc2cc(C(=O)CCC(=O)O)sc2cc1OC + Nc1ccc(C#CCN(C(=O)Cc2ncc(C(F)(F)F)cc2C(F)(F)F)c2ccc(F)cc2)nn1 = 110

Which value of viability, T/C has been reported for C=CC(=O)N1CCN(c2nc(=O)n(-c3c(C)ccnc3C(C)C)c3nc(-c4c(O)cccc4F)c(F)cc23)C(C)C1 (stereo not drawn) + COC1C(OC(N)=O)C(O)C(Oc2ccc3c(O)c(NC(=O)c4ccc(O)c(CC=C(C)C)c4)c(=O)oc3c2C)OC1(C)C in the records?
102

What about COc1cc(C2c3cc4c(cc3C(OC3OC5COC(C)OC5C(O)C3O)C3COC(=O)C23)OCO4)cc(OC)c1O (stereo not drawn) + Nc1ccc(C#CCN(C(=O)Cc2ncc(C(F)(F)F)cc2C(F)(F)F)c2ccc(F)cc2)nn1 ?
28

* * *

- Tested on: 935938-334-R-J1-PDC complex spheroid viability
- experimental protocol: Anticancer human tumor 935938-334-R-J1-PDC cell line growth inhibition [POLQ];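 note: spheroids exposed to drugs for seven days before viability read; 100% = DMSO vehicle control wells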
- condition label: second compound 0.1 µM; first compound 0.316 µM; stronger effect = lower value
Class key for viability, T/C values: low-valued: < 30%; mid-valued: ≥ 30% and < 90%; high-valued: ≥ 90%

// known answers, use as guide
CC1COCCN1c1cc(-c2ccnn2C)c2ccnc(-c3ccn[nH]3)c2n1 (configuration not stated) + Nc1ccc(C#CCN(C(=O)Cc2ncc(C(F)(F)F)cc2C(F)(F)F)c2ccc(F)cc2)nn1 = low-valued
CCc1c2c(nc3ccc(O)cc13)-c1cc3c(c(=O)n1C2)COC(=O)[C@]3(O)CC + Nc1ccc(C#CCN(C(=O)Cc2ncc(C(F)(F)F)cc2C(F)(F)F)c2ccc(F)cc2)nn1 = mid-valued
CC1COCCN1c1cc(C2(O)CC3CCC(C2)O3)c2cnn(-c3ccn[nH]3)c2n1 (configuration not stated) + COC1C(OC(N)=O)C(O)C(Oc2ccc3c(O)c(NC(=O)c4ccc(O)c(CC=C(C)C)c4)c(=O)oc3c2C)OC1(C)C = mid-valued
COc1cccc(OCCCN)c1-c1cc(Nc2cnc(C#N)cn2)n[nH]1 + Nc1ccc(C#CCN(C(=O)Cc2ncc(C(F)(F)F)cc2C(F)(F)F)c2ccc(F)cc2)nn1 = low-valued
COc1cccc2c1C(=O)c1c(O)c3c(c(O)c1C2=O)CC(O)(C(=O)CO)CC3OC1CC(N)C(O)C(C)O1 (configuration not stated) + Cc1cccc(N(C)C(=O)C2C(O)CCN2c2nc(C)cc(C(F)(F)F)c2C#N)c1 = mid-valued
CC1COCCN1c1cc(C2(S(C)(=N)=O)CC2)nc(-c2ccnc3[nH]ccc23)n1 (configuration not stated) + COC1C(OC(N)=O)C(O)C(Oc2ccc3c(O)c(NC(=O)c4ccc(O)c(CC=C(C)C)c4)c(=O)oc3c2C)OC1(C)C = mid-valued
COc1cccc(OCCCN)c1-c1cc(Nc2cnc(C#N)cn2)n[nH]1 + Cc1cccc(N(C)C(=O)C2C(O)CCN2c2nc(C)cc(C(F)(F)F)c2C#N)c1 = low-valued
CCc1c2c(nc3ccc(O)cc13)-c1cc3c(c(=O)n1C2)COC(=O)[C@]3(O)CC + Cc1cccc(N(C)C(=O)C2C(O)CCN2c2nc(C)cc(C(F)(F)F)c2C#N)c1 = mid-valued
CNCc1ccc(-c2[nH]c3cc(F)cc4c3c2CCNC4=O)cc1 + Nc1ccc(C#CCN(C(=O)Cc2ncc(C(F)(F)F)cc2C(F)(F)F)c2ccc(F)cc2)nn1 = high-valued

Sort into band: CCCS(=O)(=O)Nc1ccc(F)c(C(=O)c2c[nH]c3ncc(-c4ccc(Cl)cc4)cc23)c1F + Nc1ccc(C#CCN(C(=O)Cc2ncc(C(F)(F)F)cc2C(F)(F)F)c2ccc(F)cc2)nn1
high-valued

* * *

- Test system: 935938-334-R-J1-PDC complex spheroid viability
- experimental protocol: Anticancer human tumor 935938-334-R-J1-PDC cell line growth inhibition [POLQ];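 note: spheroids exposed to drugs for seven days before viability read; 100% = DMSO vehicle control wells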
- condition label: second compound 3.16 µM; first compound 1 µM; stronger effect = lower value
Lab note - cut at 60% for viability, T/C: y if strictly below, n if not.

// known answers, use as guide
COc1ccc([C@@H](O)c2cc(-c3ncnc4cc(N5CCOCC5)ccc34)c(F)cc2Cl)nn1 + COC1C(OC(N)=O)C(O)C(Oc2ccc3c(O)c(NC(=O)c4ccc(O)c(CC=C(C)C)c4)c(=O)oc3c2C)OC1(C)C = n
CC1COCCN1c1cc(C2(S(C)(=N)=O)CC2)nc(-c2ccnc3[nH]ccc23)n1 (centres undefined) + Cc1cccc(N(C)C(=O)C2C(O)CCN2c2nc(C)cc(C(F)(F)F)c2C#N)c1 = n
O=C(c1cc(Cc2n[nH]c(=O)c3ccccc23)ccc1F)N1CCN(C(=O)C2CC2)CC1 + Nc1ccc(C#CCN(C(=O)Cc2ncc(C(F)(F)F)cc2C(F)(F)F)c2ccc(F)cc2)nn1 = n
Nc1ccn(C2OC(CO)C(O)C2(F)F)c(=O)n1 (centres undefined) + Nc1ccc(C#CCN(C(=O)Cc2ncc(C(F)(F)F)cc2C(F)(F)F)c2ccc(F)cc2)nn1 = y
O=C(Nc1ccc(O)c(NS(=O)(=O)c2ccc(F)cc2)c1)c1ccc(-c2ccccc2)cc1 + Cc1cccc(N(C)C(=O)C2C(O)CCN2c2nc(C)cc(C(F)(F)F)c2C#N)c1 = n

viability, T/C strictly < 60% for this compound? O=C(c1cc(Cc2n[nH]c(=O)c3ccccc23)ccc1F)N1CCN(C(=O)C2CC2)CC1 + Cc1cccc(N(C)C(=O)C2C(O)CCN2c2nc(C)cc(C(F)(F)F)c2C#N)c1
n

What about CCc1c2c(nc3ccc(O)cc13)-c1cc3c(c(=O)n1C2)COC(=O)[C@]3(O)CC + Cc1cccc(N(C)C(=O)C2C(O)CCN2c2nc(C)cc(C(F)(F)F)c2C#N)c1 ?
y

What about COc1cccc2c1C(=O)c1c(O)c3c(c(O)c1C2=O)CC(O)(C(=O)CO)CC3OC1CC(N)C(O)C(C)O1 (centres undefined) + Cc1cccc(N(C)C(=O)C2C(O)CCN2c2nc(C)cc(C(F)(F)F)c2C#N)c1 ?
y

What about C=CCn1c(=O)c2cnc(Nc3ccc(N4CCN(C)CC4)cc3)nc2n1-c1cccc(C(C)(C)O)n1 + Nc1ccc(C#CCN(C(=O)Cc2ncc(C(F)(F)F)cc2C(F)(F)F)c2ccc(F)cc2)nn1 ?
y

* * *

- Test system: 935938-334-R-J1-PDC complex spheroid viability
- experimental protocol: Anticancer human tumor 935938-334-R-J1-PDC cell line growth inhibition [POLQ];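 note: spheroids exposed to drugs for seven days before viability read; 100% = DMSO vehicle control wells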
- condition label: second compound 1 µM; first compound 0.01 µM; stronger effect = lower value
- Description: Multicellular complex tumor spheroid response to Polymerase (POL) inhibitors (novobiocin, ART-558, RP6685) in combination with a variety of drugs and investigational agents in selected tumor cell lines The POL inhibitors (novobiocin, ART-558, and RP6685) were evaluated both individually and in combination with standard of care and investigational anticancer small molecules within a complex spheroid model of solid tumors. . […]
parameter: viability, T/C (%)
Express the result in % but write the number alone.

CC[C@@]1(O)C(=O)OCc2c1cc1n(c2=O)Cc2cc3c(CN(C)C)c(O)ccc3nc2-1 + Nc1ccc(C#CCN(C(=O)Cc2ncc(C(F)(F)F)cc2C(F)(F)F)c2ccc(F)cc2)nn1 = 105

Which value of viability, T/C has been reported for COc1cccc(OCCCN)c1-c1cc(Nc2cnc(C#N)cn2)n[nH]1 + COC1C(OC(N)=O)C(O)C(Oc2ccc3c(O)c(NC(=O)c4ccc(O)c(CC=C(C)C)c4)c(=O)oc3c2C)OC1(C)C in the records?
85.1

What about COc1cccc(OCCCN)c1-c1cc(Nc2cnc(C#N)cn2)n[nH]1 + Cc1cccc(N(C)C(=O)C2C(O)CCN2c2nc(C)cc(C(F)(F)F)c2C#N)c1 ?
86

What about Cn1ncnc1[C@H]1c2n[nH]c(=O)c3cc(F)cc(c23)N[C@@H]1c1ccc(F)cc1 + COC1C(OC(N)=O)C(O)C(Oc2ccc3c(O)c(NC(=O)c4ccc(O)c(CC=C(C)C)c4)c(=O)oc3c2C)OC1(C)C ?
94.8

What about C=CCn1c(=O)c2cnc(Nc3ccc(N4CCN(C)CC4)cc3)nc2n1-c1cccc(C(C)(C)O)n1 + Nc1ccc(C#CCN(C(=O)Cc2ncc(C(F)(F)F)cc2C(F)(F)F)c2ccc(F)cc2)nn1 ?
105

What about CC[C@@]1(O)C(=O)OCc2c1cc1n(c2=O)Cc2cc3c(CN(C)C)c(O)ccc3nc2-1 + Cc1cccc(N(C)C(=O)C2C(O)CCN2c2nc(C)cc(C(F)(F)F)c2C#N)c1 ?
111

What about COc1cccc(OCCCN)c1-c1cc(Nc2cnc(C#N)cn2)n[nH]1 + Nc1ccc(C#CCN(C(=O)Cc2ncc(C(F)(F)F)cc2C(F)(F)F)c2ccc(F)cc2)nn1 ?
83.2

What about CC[C@@]1(O)C(=O)OCc2c1cc1n(c2=O)Cc2cc3c(CN(C)C)c(O)ccc3nc2-1 + COC1C(OC(N)=O)C(O)C(Oc2ccc3c(O)c(NC(=O)c4ccc(O)c(CC=C(C)C)c4)c(=O)oc3c2C)OC1(C)C ?
74.8
